System: NCI-H522
Experiment: NCI 60 human tumor cell line screen (SRB)
Assay type: cell-based
Settings: NCI-H522 (Non-Small Cell Lung Cancer); 48 h
metric: Log10GI50
Answers are plain numbers.

Respectfully, I request Log10GI50 for each entry included below.
1. C[C@]1(C(=O)[C@H](Cc2ccccc2)NC(=O)[C@H](Cc2ccccc2)NC(=O)[C@H](COC(F)F)NC(=O)CN2CCOCC2)CO1
2. CC(C)C[C@H](NC(=O)[C@H](Cc1ccccc1)NC(=O)[C@H](COC(F)F)NC(=O)CN1CCOCC1)C(=O)[C@@]1(C)CO1

Ans.
1. −6.90
2. −7.67

Respectfully, I request Log10GI50 for each entry included below.
1. Cc1ncc(C(=O)N[C@@H](COC(F)F)C(=O)N[C@@H](COC(F)F)C(=O)N[C@@H](Cc2ccccc2)C(=O)[C@@]2(C)CO2)s1
2. C[C@]1(C(=O)[C@H](Cc2ccccc2)NC(=O)[C@H](COC(F)F)NC(=O)[C@H](COC(F)F)NC(=O)CN2CCOCC2)CO1

Ans.
["−6.86", "−7.67"]

###

Tested on: SW-620
Experiment: NCI 60 human tumor cell line screen (SRB)
Format: cell-based
Details: SW-620 (Colon Cancer); 48 h
Description: […] Following drug addition, the plates are incubated for an additional 48 h at 37° C., 5% CO2, 95% air, and 100% relative humidity. […] Bound stain is subsequently solubilised with 10 mM trizma base, and the absorbance is read on an automated plate reader at a wavelength of 515 nm. […] Percentage growth inhibition is calculated as: [(Ti−Tz)/(C−Tz)]×100 for concentrations in which Ti>/=Tz and [(Ti−Tz)/Tz]×100 for concentrations in which Ti<Tz. […]
Would you mind telling me the reported Log10LC50 of each entry?

# annotated cases, reported Log10LC50 shown
Cc1ncc(C(=O)N[C@@H](COC(F)F)C(=O)N[C@@H](COC(F)F)C(=O)N[C@@H](Cc2ccccc2)C(=O)[C@@]2(C)CO2)s1    −4.40
C[C@]1(C(=O)[C@H](Cc2ccccc2)NC(=O)[C@H](Cc2ccccc2)NC(=O)[C@H](COC(F)F)NC(=O)CN2CCOCC2)CO1    >−4.00
C[C@]1(C(=O)[C@H](Cc2ccccc2)NC(=O)[C@H](COC(F)F)NC(=O)[C@H](COC(F)F)NC(=O)CN2CCOCC2)CO1    >−4.00

Below: the item to evaluate.
Field Log10LC50 (SW-620), entry `CC(C)C[C@H](NC(=O)[C@H](Cc1ccccc1)NC(=O)[C@H](COC(F)F)NC(=O)CN1CCOCC1)C(=O)[C@@]1(C)CO1` : >−4.00

###

Tested on: MOLT-4
Assay: NCI 60 human tumor cell line screen (SRB)
Assay type: cell-based
Conditions: MOLT-4 (Leukemia); 48 h
metric: Log10TGI50

# annotated cases, reported Log10TGI50 shown
Cc1ncc(C(=O)N[C@@H](COC(F)F)C(=O)N[C@@H](COC(F)F)C(=O)N[C@@H](Cc2ccccc2)C(=O)[C@@]2(C)CO2)s1 [Example 1]    >−4.00
C[C@]1(C(=O)[C@H](Cc2ccccc2)NC(=O)[C@H](Cc2ccccc2)NC(=O)[C@H](COC(F)F)NC(=O)CN2CCOCC2)CO1 [Example 29]    −7.05
CC(C)C[C@H](NC(=O)[C@H](Cc1ccccc1)NC(=O)[C@H](COC(F)F)NC(=O)CN1CCOCC1)C(=O)[C@@]1(C)CO1 [Example 25]    −7.11

Below: the item to evaluate.
Quick note, Log10TGI50 for C[C@]1(C(=O)[C@H](Cc2ccccc2)NC(=O)[C@H](COC(F)F)NC(=O)[C@H](COC(F)F)NC(=O)CN2CCOCC2)CO1 [Example 26] landed at −7.11
